B1: PBXIP1 (parent)
chain: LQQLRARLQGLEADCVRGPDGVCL

Variants of: B1
method_summary: protein stability index of a GFP-peptide fusion (GPS, HEK-293T) (PSI 1-6); higher = more stable;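 further: lentivirally expressed fusions sorted by FACS into six bins by GFP to DsRed ratio, PSI derived from sequencing read proportions per bin multiplied by bin number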
condition_summary: c terminus: a fixed tail appended
measured_property: protein stability index

Worked examples, 5 variants total:
L1S :: 4.1
L1V :: 2.52
V22A :: 2.03
D14P :: 2.1
R5C :: 1.24

Need protein stability index, item Q2W 1.28

Need protein stability index, item V22T 2.57

Need protein stability index, item Q3G 2.66
